Each recorded value in this set is attributed to patent US7396645B1.

System: male Sprague-Dawley rats
Conditions: rat, in vivo, po
measureName: raised serum levels of ALP and TBI compared with vehicle-treated control animals

Before answering, review these 4 worked examples.
In: Give raised serum levels of ALP and TBI compared with vehicle-treated control animals for this entry on male Sprague-Dawley rats: CC/C(=C(/CC)c1ccc(O)cc1)c1ccc(O)cc1 [DIETHYLSTILBESTROL, 3,4-bis-(4-hydroxyphenyl)-3-hexene]
Out: at least 2 fold

In: Give raised serum levels of ALP and TBI compared with vehicle-treated control animals for this entry on male Sprague-Dawley rats: CC(C)c1c(C(=O)Nc2ccccc2)c(-c2ccccc2)c(-c2ccc(F)cc2)n1CC[C@@H](O)C[C@@H](O)CC(=O)O (relative stereo) [ATORVASTATIN]
Out: at least 2 fold

In: Give raised serum levels of ALP and TBI compared with vehicle-treated control animals for this entry on male Sprague-Dawley rats: CCO [ETHANOL]
Out: at least 2 fold

In: Give raised serum levels of ALP and TBI compared with vehicle-treated control animals for this entry on male Sprague-Dawley rats: Cc1ccc(C)c(OCCCC(C)(C)C(=O)O)c1 [GEMFIBROZIL]
Out: at least 2 fold

From here, focus on the item given below.
In: Give raised serum levels of ALP and TBI compared with vehicle-treated control animals for this entry on male Sprague-Dawley rats: Clc1ccccc1C(c1ccccc1)(c1ccccc1)n1ccnc1 [CLOTRIMAZOLE, 1-(o-chloro-α,α-diphenylbenzyl)imidazole]
Out: at least 2 fold

---

Test system: Cholestasis Signature
Conditions: rat, in vivo
Marks after values point to notes of the source that are not given here.
Exercise: for every item that follows, state its recorded Sequence Projection Score (SPS).

Before answering, review these 4 worked examples.
In: Give Sequence Projection Score (SPS) for this entry on Cholestasis Signature: COCc1c(C(C)C)nc(C(C)C)c(/C=C/[C@@H](O)C[C@@H](O)CC(=O)O)c1-c1ccc(F)cc1
Out: 36*

In: Give Sequence Projection Score (SPS) for this entry on Cholestasis Signature: CCOC(=O)C(C)(C)Oc1ccc(Cl)cc1 [CLOFIBRATE]
Out: 22

In: Give Sequence Projection Score (SPS) for this entry on Cholestasis Signature: COc1ccc2c(c1)c(CC(=O)O)c(C)n2C(=O)c1ccc(Cl)cc1
Out: 52*

In: Give Sequence Projection Score (SPS) for this entry on Cholestasis Signature: CN(Cc1cnc2nc(N)nc(N)c2n1)c1ccc(C(=O)N[C@@H](CCC(=O)O)C(=O)O)cc1 [METHOTREXATE]
Out: 17

Hey, can you go through the list below and give me Sequence Projection Score (SPS) for every item?
1. Clc1ccccc1C(c1ccccc1)(c1ccccc1)n1ccnc1
2. Cc1ccc(C)c(OCCCC(C)(C)C(=O)O)c1
3. CC1=C(CC(=O)O)c2cc(F)ccc2/C1=C\c1ccc([S+](C)[O-])cc1 (centres unmarked)
4. CC(C)c1c(C(=O)Nc2ccccc2)c(-c2ccccc2)c(-c2ccc(F)cc2)n1CC[C@@H](O)C[C@@H](O)CC(=O)O (relative stereo)

Out:
["33*", "28*", "45*", "62*"]

---

System: Cholestasis Signature
Conditions: rat, in vivo
Marks after values point to notes of the source that are not given here.
measureName: Sequence Projection Score (SPS)

Before answering, review these 5 worked examples.
In: Identify the reported Sequence Projection Score (SPS) for the following entry. CC#C[C@]1(O)CC[C@H]2[C@@H]3CCC4=CC(=O)CCC4=C3[C@@H](c3ccc(N(C)C)cc3)C[C@@]21C [MIFEPRISTONE]
Out: 39*

In: Identify the reported Sequence Projection Score (SPS) for the following entry. COc1ccc2cc([C@H](C)C(=O)O)ccc2c1 [NAPROXEN]
Out: 48*

In: Identify the reported Sequence Projection Score (SPS) for the following entry. Nc1nc2nc[nH]c2c(=S)[nH]1 [THIOGUANINE]
Out: 19

In: Identify the reported Sequence Projection Score (SPS) for the following entry. C[C@]12CC[C@@H]3c4ccc(O)cc4CC[C@H]3[C@@H]1C[C@@H](O)[C@@H]2O [ESTRIOL]
Out: 27*

In: Identify the reported Sequence Projection Score (SPS) for the following entry. CC/C(=C(/CC)c1ccc(O)cc1)c1ccc(O)cc1 [DIETHYLSTILBESTROL, 3,4-bis-(4-hydroxyphenyl)-3-hexene]
Out: 34*

Hey, can you go through the list below and give me Sequence Projection Score (SPS) for every item?
1. Cc1cnc(NC(=O)C2=C(O)c3ccccc3S(=O)(=O)N2C)s1 [MELOXICAM]
2. CS(=O)(=O)Nc1ccc([N+](=O)[O-])cc1Oc1ccccc1 [NIMESULIDE]

Out:
1: 31*; 2: 38*

Hey, can you go through the list below and give me Sequence Projection Score (SPS) for every item?
1. C#C[C@]1(O)CC[C@H]2[C@@H]3CCc4cc(O)ccc4[C@H]3CC[C@@]21C [ETHINYLESTRADIOL]
2. CC(C)OC(=O)C(C)(C)Oc1ccc(C(=O)c2ccc(Cl)cc2)cc1 [FENOFIBRATE]
3. CC(C)(Oc1ccc(CCNC(=O)c2ccc(Cl)cc2)cc1)C(=O)O [BEZAFIBRATE]
4. O=C(O)Cc1ccccc1Nc1c(Cl)cccc1Cl [DICLOFENAC]
5. C[C@]12CC[C@@H]3c4ccc(O)cc4CC[C@H]3[C@@H]1CC[C@@H]2O [BETA ESTRADIOL]
6. CC[C@H](C)C(=O)O[C@H]1C[C@@H](C)C=C2C=C[C@H](C)[C@H](CC[C@@H]3C[C@@H](O)CC(=O)O3)[C@H]21 [LOVASTATIN]
7. CS(=O)(=O)c1ccc(C2=C(c3ccccc3)C(=O)OC2)cc1 [ROFECOXIB]

Out:
1. 61*
2. 43*
3. 42*
4. 41*
5. 26*
6. 37*
7. 27*

Hey, can you go through the list below and give me Sequence Projection Score (SPS) for every item?
1. C[C@@H]1C[C@H]2[C@@H]3CCC4=CC(=O)C=C[C@]4(C)[C@@]3(F)[C@@H](O)C[C@]2(C)[C@@]1(O)C(=O)CO [DEXAMETHASONE]
2. CC(=O)N1CCN(c2ccc(OCC3COC(Cn4ccnc4)(c4ccc(Cl)cc4Cl)O3)cc2)CC1 (centres unmarked) [KETOCONAZOLE]
3. OC(Cn1cncn1)(Cn1cncn1)c1ccc(F)cc1F [FLUCONAZOLE]

Out:
1. 32*
2. 21
3. 63*
